Target: human NLRP3 (Homo sapiens, UniProt Q96P20)
Sequence (Q96P20 whole entry): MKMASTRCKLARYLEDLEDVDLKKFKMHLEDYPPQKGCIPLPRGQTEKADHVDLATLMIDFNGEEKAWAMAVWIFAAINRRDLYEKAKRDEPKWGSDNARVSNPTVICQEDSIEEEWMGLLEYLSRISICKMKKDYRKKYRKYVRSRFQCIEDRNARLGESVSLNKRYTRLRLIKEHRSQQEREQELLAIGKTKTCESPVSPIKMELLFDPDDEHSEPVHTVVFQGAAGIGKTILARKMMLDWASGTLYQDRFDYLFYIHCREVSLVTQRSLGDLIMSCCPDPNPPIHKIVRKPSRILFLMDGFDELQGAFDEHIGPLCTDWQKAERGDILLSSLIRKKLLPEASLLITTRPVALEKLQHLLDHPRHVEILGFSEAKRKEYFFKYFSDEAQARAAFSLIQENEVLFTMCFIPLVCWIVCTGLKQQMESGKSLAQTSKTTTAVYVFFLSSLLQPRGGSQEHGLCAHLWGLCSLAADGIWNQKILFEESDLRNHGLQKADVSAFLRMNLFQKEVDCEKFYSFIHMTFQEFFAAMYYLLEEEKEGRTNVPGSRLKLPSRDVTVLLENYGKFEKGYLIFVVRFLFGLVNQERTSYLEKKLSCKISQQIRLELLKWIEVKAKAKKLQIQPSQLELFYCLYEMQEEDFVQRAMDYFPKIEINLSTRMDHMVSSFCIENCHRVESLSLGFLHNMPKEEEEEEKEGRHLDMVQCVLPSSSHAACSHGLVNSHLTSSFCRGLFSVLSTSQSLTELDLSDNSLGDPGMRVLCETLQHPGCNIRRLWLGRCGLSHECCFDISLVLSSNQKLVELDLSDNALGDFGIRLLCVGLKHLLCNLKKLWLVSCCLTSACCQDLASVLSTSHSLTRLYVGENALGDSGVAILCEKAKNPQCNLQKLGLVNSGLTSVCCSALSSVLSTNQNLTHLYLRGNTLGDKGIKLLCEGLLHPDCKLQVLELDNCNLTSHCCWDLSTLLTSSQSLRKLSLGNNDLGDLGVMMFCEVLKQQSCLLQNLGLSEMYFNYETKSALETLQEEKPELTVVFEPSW
Experiment: Human Whole Blood (hWB) NLRP3 Assay (IL-1β MSD)
Assay type: cell-based
Conditions: LPS 1 μg/ml 4.5 h, ATP 30 min, class symbols
Protocol: Human whole blood was drawn from healthy volunteers after obtaining written informed consent. Heparin lithium coated tubes were used to collect blood from volunteers. Blood samples were distributed on 96 well plates using 90 μl per well. […] IL-1β levels in the supernatant were analyzed using a mesoscale discovery assay (MSD K151TUK) according to the manufacturers' instructions. […]
pIC50: −log10 of the molar value.
List of pIC50 values.

GET /values?readout=pIC50&item= CC1(C)C(=O)N(CC(=O)NCCCc2nnn[nH]2)c2c(O)cc(Br)cc21 [Compound 33] < 6.00

GET /values?readout=pIC50&item= C[C@@H](CC(=O)O)[C@H](NC(=O)CN1C(=O)C(C)(C)c2c1ccc(C1CC1)c2F)C1CC1 (single isomer, unassigned) [Compound 60A*] 6.00 to 6.30

GET /values?readout=pIC50&item= CC1(C)C(=O)N(CC(=O)NC[C@H](F)CC(=O)O)c2c(F)cc(C(F)(F)F)c(F)c21 [Compound 64A] 6.00 to 6.30

GET /values?readout=pIC50&item= CC1(C)C(=O)N(CC(=O)NCCCC(=O)O)c2ccc(I)cc21 [Compound 22] > 6.52

* * *

List of pIC50 values.
Target: mouse NLRP3 (Mus musculus, UniProt Q8R4B8)
Construct: Blood was drawn from female CD1 mice (9 to 10 weeks) by cardiac puncture
Sequence (Q8R4B8 whole entry): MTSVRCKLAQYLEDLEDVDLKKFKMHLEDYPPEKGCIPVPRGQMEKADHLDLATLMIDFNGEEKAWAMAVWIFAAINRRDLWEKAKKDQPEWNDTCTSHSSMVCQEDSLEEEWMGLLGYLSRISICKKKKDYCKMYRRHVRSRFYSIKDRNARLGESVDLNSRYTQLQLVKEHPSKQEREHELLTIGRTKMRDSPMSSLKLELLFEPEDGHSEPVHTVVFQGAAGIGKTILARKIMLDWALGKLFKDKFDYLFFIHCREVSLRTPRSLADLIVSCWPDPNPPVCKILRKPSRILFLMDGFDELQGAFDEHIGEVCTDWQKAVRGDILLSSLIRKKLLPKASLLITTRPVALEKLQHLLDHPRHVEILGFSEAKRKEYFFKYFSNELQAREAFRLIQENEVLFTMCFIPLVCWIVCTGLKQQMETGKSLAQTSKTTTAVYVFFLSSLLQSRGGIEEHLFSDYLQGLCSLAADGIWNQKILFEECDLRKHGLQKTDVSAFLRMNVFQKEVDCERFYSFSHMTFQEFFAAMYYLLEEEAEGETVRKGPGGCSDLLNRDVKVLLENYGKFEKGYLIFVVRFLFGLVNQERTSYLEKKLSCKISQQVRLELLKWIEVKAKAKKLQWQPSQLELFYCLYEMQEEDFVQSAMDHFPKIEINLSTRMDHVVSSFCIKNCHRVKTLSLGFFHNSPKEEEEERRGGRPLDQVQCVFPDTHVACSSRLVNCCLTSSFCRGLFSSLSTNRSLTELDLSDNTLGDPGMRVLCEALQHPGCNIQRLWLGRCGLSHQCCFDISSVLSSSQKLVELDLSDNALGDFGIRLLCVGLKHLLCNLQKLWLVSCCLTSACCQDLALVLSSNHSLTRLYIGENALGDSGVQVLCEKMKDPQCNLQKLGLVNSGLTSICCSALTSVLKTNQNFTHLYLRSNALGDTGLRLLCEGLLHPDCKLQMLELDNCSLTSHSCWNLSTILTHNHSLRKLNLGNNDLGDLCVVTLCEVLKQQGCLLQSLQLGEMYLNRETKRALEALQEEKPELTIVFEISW
Experiment: Mouse Whole Blood (mWB) NLRP3 Assay (IL-1β MSD)
Conditions: CD1 mouse whole blood, LPS 1 μg/mL 5 h, ATP 5 mM; class symbols
Method: Reagents: The following reagents were used: blood collection tubes (Heparin); U-bottom 96-well tissue culture (Falcon 353077); HBSS for LPS, ATP and compound dilutions (Gibco 24020-117); and LPS, E. coli serotype 026:B6 (Sigma L-2654). Mouse IL-1b MSD assay: Blood was drawn from female CD1 mice (9 to 10 weeks) by cardiac puncture. Blood was plated (135 μL) per well in 96-well U-bottom plates. […] Mouse IL-1b was analyzed with IL-1b MSD assay (K152TUK). […]
pIC50: −log10 of the molar value.

Examples from the recorded data:
[
  {
    "COMPOUND": "CC1(C)C(=O)N(CC(=O)NCCCc2nnn[nH]2)c2ccc(Br)cc21",
    "pIC50": "> 6.52"
  },
  {
    "COMPOUND": "C[C@@H](CC(=O)O)[C@H](NC(=O)CN1C(=O)C(C)(C)c2c1ccc(C1CC1)c2F)C1CC1 (single isomer, unassigned) [Compound 60A*]",
    "pIC50": "> 6.52"
  },
  {
    "COMPOUND": "C[C@@H](CCC(=O)O)NC(=O)CN1C(=O)C(C)(C)c2c(F)c(C3CC3)cc(F)c21 [Compound 59A]",
    "pIC50": "> 6.52"
  }
]

GET /values?readout=pIC50&item= CC1(C)C(=O)N(CC(=O)NCCCC(=O)O)c2c(F)cc(C3CC3)c(F)c21 > 6.52

GET /values?readout=pIC50&item= CC1(C)C(=O)N(CC(=O)NCCCC(=O)O)c2c(F)cc(C3CC3)cc21 > 6.52

GET /values?readout=pIC50&item= C[C@H]1C[C@@H](NC(=O)CN2C(=O)C(C)(C)c3cc(Br)cc(O)c32)CN(c2nnn[nH]2)C1 6.00 to 6.30

GET /values?readout=pIC50&item= C[C@@H](CNC(=O)CN1C(=O)C(C)(C)c2c(F)c(C3CC3)cc(F)c21)CC(=O)O [Compound 61A] > 6.52

* * *

List of pIC50 values.
Target: human NLRP3 (Homo sapiens)
Assay: Human PBMC NLRP3 Assay (IL-1β release)
Format: cell-based
Parameters: Human PBMCs (Normal): iXCells Cat #10HU-003; host or cells: human PBMCs (normal donors), LPS-primed, nigericin-stimulated
Details: human PBMCs, LPS priming, nigericin stimulation; numeric values of Tables C1-C4
Procedure: Reagents: Human PBMCs (Normal): iXCells Cat #10HU-003; RPMI 1640 medium (ATCC modification): ThermoFisher Cat #A1049101 (Complete Media: 10% FBS, 1% Pen/Strep; Assay Media: 1% Pen/Strep; 75 cm^2 cell culture flask: Corning Cat #430641U; 96-well cell culture plates: VWR Cat #10062-900; LPS (E. coli 026:B6): Sigma Cat #L2654, stock 5 mg/mL in PBS; Nigericin sodium salt: Sigma Cat #N7143, stock 5 mg/mL (6.7 mM) in ethanol. […]
pIC50 here: minus log base 10 of the concentration, concentration in moles per litre.

[
  {
    "RECORD SMILES": "O=C(O)CCCNC(=O)CN1C(=O)C2(CC2)c2cc(Br)ccc21",
    "ENDPOINT RESULT": 6.24
  }
]

GET /values?readout=pIC50&item= CC1(C)C(=O)N(CC(=O)NCCCC(=O)O)c2c(F)cc(C3CC3)c(F)c21 7.23

* * *

target: human NLRP3 (Homo sapiens); assay: Human PBMC NLRP3 Assay (IL-1β release); type: cell-based; design: Human PBMCs (Normal): iXCells Cat #10HU-003; host or cells: human PBMCs (normal donors), LPS-primed, nigericin-stimulated; details: human PBMCs, LPS priming 4 h, nigericin stimulation 1 h; class symbols
MEASUREMENT TYPE: IC50

[
  {
    "RECORD SMILES": "CC1(C)C(=O)N(CC(=O)NCCCC(=O)O)c2c(O)cc(I)cc21",
    "IC50": "< 300 nM"
  },
  {
    "RECORD SMILES": "O=C(O)CCCNC(=O)CN1C(=O)C(F)(F)c2cc(Br)ccc21",
    "IC50": "300 to 500 nM"
  },
  {
    "RECORD SMILES": "CC1(C)C(=O)N(CC(=O)NCCCC(=O)O)c2c(F)cc(C3CC3)c(F)c21",
    "IC50": "< 300 nM"
  },
  {
    "RECORD SMILES": "CC1(C)C(=O)N(CC(=O)NCCCc2nnn[nH]2)c2c(O)cc(Br)cc21",
    "IC50": "< 300 nM"
  }
]

GET /values?readout=IC50&item= CC1(C)C(=O)N(CC(=O)NCCCc2nnn[nH]2)c2ccc(Br)cc21 < 300 nM

* * *

biological target: UniProtKB Q96P20; test: Human PBMC NLRP3 Assay (IL-1β release); format: cell-based; set-up: Human PBMCs (Normal): iXCells Cat #10HU-003; host or cells: human PBMCs (normal donors), LPS-primed, nigericin-stimulated; conditions: human PBMCs, LPS priming 4 h, nigericin stimulation 1 h; class symbols
MEASUREMENT TYPE: IC50

Examples from the recorded data:
[
  {
    "MOLECULE": "CC1(C)C(=O)N(CC(=O)NC2(CCC(=O)O)CC2)c2c(O)cc(Br)cc21",
    "ENDPOINT RESULT": "< 0.3 µM"
  },
  {
    "MOLECULE": "CC1(C)C(=O)N(CC(=O)N[C@@H]2CCC[C@@H]2C(=O)O)c2ccc(Br)cc21 (single isomer, unassigned) [52A*]",
    "ENDPOINT RESULT": "> 10 µM"
  },
  {
    "MOLECULE": "CC1(C)C(=O)N(CC(=O)NCCCC(=O)O)c2c(C(F)(F)F)cc(Br)cc21",
    "ENDPOINT RESULT": "> 10 µM"
  },
  {
    "MOLECULE": "CC1(C)C(=O)N(CC(=O)NCCCC(=O)O)c2cc(F)c(Br)cc21",
    "ENDPOINT RESULT": "1 to 10 µM"
  }
]

GET /values?readout=IC50&item= CC1(C)C(=O)N(CC(=O)NCc2ccccc2C(=O)O)c2ccc(Br)cc21 > 10 µM

GET /values?readout=IC50&item= CC(C)(CCNC(=O)CN1C(=O)C(C)(C)c2cc(Br)ccc21)C(=O)O 1 to 10 µM

* * *

target: human NLRP3 (Homo sapiens); experiment: Human PBMC NLRP3 Assay (IL-1β release); type: cell-based; set-up: Human PBMCs (Normal): iXCells Cat #10HU-003; host or cells: human PBMCs (normal donors), LPS-primed, nigericin-stimulated; details: human PBMCs, LPS priming, nigericin stimulation; numeric values of Tables C1-C4
pIC50: −log10 of the molar value.
Returns one of true (1) or false (0); true (1) when pIC50 is >= 6.

[
  {
    "COMPOUND": "O=C(O)CCNC(=O)Cn1ccc2cc(Br)ccc21 [COMPARATIVE EXAMPLE 5, reference compound]",
    "LABEL CLASS": "false (0)"
  },
  {
    "COMPOUND": "O=C(O)CCCNC(=O)CN1C(=O)C(F)(F)c2cc(Br)ccc21",
    "LABEL CLASS": "true (1)"
  },
  {
    "COMPOUND": "O=C(O)CCCNC(=O)Cn1ccc2cc(Br)ccc21 [COMPARATIVE EXAMPLE 2, reference compound]",
    "LABEL CLASS": "false (0)"
  },
  {
    "COMPOUND": "CC1(C)C(=O)N(CC(=O)NCCCC(=O)O)c2ccc(Br)cc21",
    "LABEL CLASS": "true (1)"
  }
]

Please look at the following compound next.
Determine whether measured pIC50 meets or exceeds 6 for O=C(O)CCCNC(=O)CN1C(=O)Cc2cc(Br)ccc21 [COMPARATIVE EXAMPLE 3, reference compound] false (0)
